readout.label: pIC50
# pIC50 = -log10(concentration in molar units)

Request body: readout pIC50, system PRMT3 (Homo sapiens, UniProt O60678), query `CC(C)(C)c1ccc(NC(=O)c2ncn(CC(=O)NCCn3ccc4c(N)ncnc43)n2)cc1` . Return the value. 3.83

Request body: readout pIC50, system PRMT3 (Homo sapiens, UniProt O60678), query `CC(C)(C)c1ccc(NC(=O)c2ncn(CC(=O)NCc3ccc4c(N)nccc4c3)n2)cc1` . Return the value. 4.39

Request body: readout pIC50, system PRMT3 (Homo sapiens, UniProt O60678), query Nc1ncnc2c1ncn2[C@@H]1O[C@H](CSCC[C@H](N)C(=O)O)[C@@H](O)[C@H]1O [SAH, S-adenosylhomocysteine, reference compound] . Return the value. 5.84

----------
study.system: PRMT4 (Homo sapiens)
Sequence (Q86X55 1-608): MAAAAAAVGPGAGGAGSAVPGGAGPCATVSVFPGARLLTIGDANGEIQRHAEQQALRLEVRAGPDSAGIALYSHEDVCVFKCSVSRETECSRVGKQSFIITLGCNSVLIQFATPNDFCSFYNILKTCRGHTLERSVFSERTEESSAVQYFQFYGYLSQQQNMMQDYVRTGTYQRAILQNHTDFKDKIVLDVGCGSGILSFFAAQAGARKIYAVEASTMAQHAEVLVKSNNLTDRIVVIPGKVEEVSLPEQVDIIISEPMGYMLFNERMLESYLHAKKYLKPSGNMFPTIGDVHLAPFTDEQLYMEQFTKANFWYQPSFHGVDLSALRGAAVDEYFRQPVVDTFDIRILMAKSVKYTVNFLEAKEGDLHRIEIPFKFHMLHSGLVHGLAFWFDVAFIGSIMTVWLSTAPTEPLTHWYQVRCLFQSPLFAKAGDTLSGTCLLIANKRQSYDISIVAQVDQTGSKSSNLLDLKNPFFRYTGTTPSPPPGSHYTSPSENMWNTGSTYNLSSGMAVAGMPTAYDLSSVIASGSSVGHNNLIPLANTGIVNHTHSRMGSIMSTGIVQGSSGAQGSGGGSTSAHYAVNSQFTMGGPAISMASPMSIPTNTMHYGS
pIC50: −log10 of the molar value.
readout.label: pIC50

Returns the measured pIC50 for the input molecule. Input: `Nc1nccc2cc(CNC(=O)Cn3cnc(C(=O)NC4CCCCC4)n3)ccc12` < 3.60

Returns the measured pIC50 for the input molecule. Input: `CC(C)(C)c1ccc(NC(=O)c2ncn(CC(=O)NCCn3ccc4c(N)ncnc43)n2)cc1` < 3.60

Returns the measured pIC50 for the input molecule. Input: `Cc1ccc(NC(=O)c2ncn(CC(=O)NCc3ccc4c(N)nccc4c3)n2)cc1C` < 3.60

Returns the measured pIC50 for the input molecule. Input: `CC(C)(C)c1ccc(NC(=O)c2ncn(CC(=O)NCc3ccc4c(N)nccc4c3)n2)cc1` < 3.60
